Source: ChEMBL document CHEMBL1121446

experiment: Renal clearance from the body; format: ADME, organism-based, Kidney; settings: in vivo; read-out: CL_renal
PROPERTY_MEASURED: CL renal (mL/min)
Write it as a number; the unit mL/min goes unstated.

Query block: Recorded CL renal for Nc1ccc(S(=O)(=O)Nc2ncc(Br)cc2Br)cc1 , please?
Result block: 0.03

====

test: Total clearance from the body in rat; format: ADME, organism-based; details: in vivo, read-out: ClT
Values of clearance strictly less than 1 mL/min map to t, and values of at least 1 mL/min map to f.

Nc1ccc(S(=O)(=O)Nc2ccc([N+](=O)[O-])cn2)cc1; t

Query block: Is clearance of Cc1cccnc1NS(=O)(=O)c1ccc(N)cc1 strictly below 1 mL/min?
Result block: f

Query block: Would you mind doing Cc1cccc(NS(=O)(=O)c2ccc(N)cc2)n1 as well?
Result block: f

Query block: How about this molecule: Nc1ccc(S(=O)(=O)Nc2ccccn2)cc1 [SULFAPYRIDINE]
Result block: f

Query block: What do we get for Nc1ccc(S(=O)(=O)Nc2ncc(Cl)cc2Cl)cc1 ?
Result block: t

Query block: Could you do the same for Cc1cc(C)nc(NS(=O)(=O)c2ccc(N)cc2)c1 , please?
Result block: f

====

assay: Overall elimination rate in rat; format: ADME, organism-based; details: in vivo, read-out: ke (converted)
Parameter log10 k el: see the listing below.
The common logarithm of k el in s⁻¹ is what is listed.

Reference set, count: 6
Nc1ccc(S(=O)(=O)Nc2ncccc2Cl)cc1; -4.65
Nc1ccc(S(=O)(=O)Nc2ccccn2)cc1 [SULFAPYRIDINE]; -3.88
Cc1cnc(NS(=O)(=O)c2ccc(N)cc2)c(C#N)c1; -4.05
Nc1ccc(S(=O)(=O)Nc2ccc([N+](=O)[O-])cn2)cc1; -4.93
Cc1ccnc(NS(=O)(=O)c2ccc(N)cc2)c1; -3.79
Cc1cc(Cl)cnc1NS(=O)(=O)c1ccc(N)cc1; -4.63

Query block: Requested field: log10 k el. Item: Cc1cccnc1NS(=O)(=O)c1ccc(N)cc1
Result block: -3.83

Query block: // next record Nc1ccc(S(=O)(=O)Nc2ccc(Cl)cn2)cc1
Result block: -5.05

Query block: Likewise for Cc1cc(C)nc(NS(=O)(=O)c2ccc(N)cc2)c1 ?
Result block: -3.80

Query block: Proceed to CN(C)c1ccc(NS(=O)(=O)c2ccc(N)cc2)nc1
Result block: -4.03

Query block: Can you check N#Cc1cccnc1NS(=O)(=O)c1ccc(N)cc1 next?
Result block: -3.88

Query block: Next molecule up: Cc1cccc(NS(=O)(=O)c2ccc(N)cc2)n1
Result block: -3.99

Query block: Let us now turn to Cc1ccc(NS(=O)(=O)c2ccc(N)cc2)nc1
Result block: -4.09

Query block: Here is the next molecule: Nc1ccc(S(=O)(=O)Nc2ncc(Cl)cc2Cl)cc1
Result block: -5.05

Query block: And the next one, COc1cccnc1NS(=O)(=O)c1ccc(N)cc1 ?
Result block: -3.82

Query block: Consider next the molecule Cc1cc(Br)cnc1NS(=O)(=O)c1ccc(N)cc1 in the same way.
Result block: -4.63

Query block: Would you kindly repeat that for Nc1ccc(S(=O)(=O)Nc2ncc(Br)cc2Br)cc1 ?
Result block: -5.05

Query block: Follow-up entry: CCOc1cccnc1NS(=O)(=O)c1ccc(N)cc1
Result block: -3.86

Query block: Would you kindly repeat that for Nc1ccc(S(=O)(=O)Nc2ccc(Br)cn2)cc1 ?
Result block: -5.11
